# SYSTEM NAME: Fyn (UniProt P06241)
# Sequence (P06241 whole entry, looked up): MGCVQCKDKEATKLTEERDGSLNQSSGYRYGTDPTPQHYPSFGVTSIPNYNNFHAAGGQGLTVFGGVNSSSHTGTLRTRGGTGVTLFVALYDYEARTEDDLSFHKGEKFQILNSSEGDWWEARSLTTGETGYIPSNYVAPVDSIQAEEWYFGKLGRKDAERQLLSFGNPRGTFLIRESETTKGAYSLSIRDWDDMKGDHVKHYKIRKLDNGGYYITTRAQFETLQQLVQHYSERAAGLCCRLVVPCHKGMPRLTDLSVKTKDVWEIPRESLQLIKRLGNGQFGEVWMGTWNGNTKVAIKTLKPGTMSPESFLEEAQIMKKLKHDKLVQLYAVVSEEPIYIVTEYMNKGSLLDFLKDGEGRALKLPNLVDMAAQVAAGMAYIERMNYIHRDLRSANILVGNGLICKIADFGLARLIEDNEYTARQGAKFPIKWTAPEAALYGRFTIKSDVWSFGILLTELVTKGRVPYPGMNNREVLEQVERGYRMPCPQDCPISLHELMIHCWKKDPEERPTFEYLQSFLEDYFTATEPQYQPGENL
# EXPERIMENT DESCRIPTION: phosphorylation enrichment, bacterial display (enrichment ratio); higher = better substrate or ligand; peptides without Tyr show the background;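 note: 11-residue human phosphosite peptides and single-mutation variants displayed on the E. coli surface, counted by deep sequencing, each peptide's frequency after selection divided by its frequency in the unselected input library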;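 note: frequency after pTyr selection over input frequency; kinase dosed for 20-30% of maximal phosphorylation in three min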
As shown below, each of these sequences has a reported phosphorylation enrichment value.
READOUT NAME: phosphorylation enrichment

{"columns": ["MACROMOLECULE SEQUENCE", "RESULT NUMBER"],
 "data": [
  ["INVTIYGKTFR [EFHC1_Y177_I174V]", 0.547],
  ["NIRKKYFRAIL [CHD7_Y1217_Q1214R_YF]", 0.45],
  ["AGNPAYRSFSN [IL4R_Y497]", 0.402],
  ["AVVEPYNSLLT [TUBA1A_Y185_I188L]", 0.426],
  ["KPGLIYNKVNP [SPRED3_Y72_V71I]", 0.738],
  ["LQEQNYPAVDS [FAM114A1_Y115_L116P]", 0.92],
  ["LAIERYVVVSK [RHO_Y136_C140S]", 0.596],
  ["CHSDDYVHISI [TSC1_Y406_L411I]", 0.532],
  ["MIRSAYALRGL [CPS1_Y590_G593R]", 0.39],
  ["GMAHNYRNSSQ [AASS_Y188]", 0.446],
  ["CNPLCYPTIMI [OR6K6_Y160_R159C]", 0.408],
  ["LNPDGYKKAYE [CPXM2_Y427_E428K]", 0.676],
  ["IFGVSYDEFRF [CFTR_Y512_YF]", 0.673],
  ["SVQVDYMKTIL [GLYATL2_Y127]", 0.407],
  ["VNKIYHPDFIV [LIG3_Y768_Y768H]", 0.446],
  ["IGEGTYGQVFK [CDK13_Y716_YF]", 10.8],
  ["KIRDWYQRQRP [KRT14_Y151]", 0.4],
  ["NRSSLYLVAGP [KIAA1614_Y1083]", 0.534],
  ["KKHIPHREHKS [CSNK1G2_Y206_Y206H]", 1.01],
  ["FFCRWYRNRKS [EREG_Y144_YF]", 0.563],
  ["LNPDGYEKAFE [CPXM2_Y427_YF]", 0.576],
  ["EYGFRYELVQY [UGGT2_Y1289]", 0.558],
  ["RPGSGYTNIMR [PKLR_Y564]", 0.919],
  ["PEYVVYKPQME [CCRL2_Y170_F167Y]", 9.13],
  ["ALAHKYDGGGG [HBB_Y146_H147D]", 0.367],
  ["QGRQTYLLQPA [DDR2_Y813_P815L]", 0.462],
  ["RRAKGYPIDLY [ITGB2_Y125]", 0.787],
  ["CTTIHYNYMCH [TP53_Y234_N239H]", 0.449],
  ["RMGNLYDIDEN [GRIN2A_Y1246_D1251N]", 4.25],
  ["LGSVVYAHSKE [KCNQ2_Y226]", 0.407],
  ["ENGPFYTSFPP [GDAP2_Y488_YF]", 8.74],
  ["FPRAWCRRSIA [KIAA1109_Y4272_Y4272C]", 0.557],
  ["ASIVDYNIIGW [MYH7_Y588_G584S]", 0.45],
  ["FCRITYDIFPF [INTS13_Y67_M66T_YF]", 1.31],
  ["TLARLYHPDST [LRIG1_Y1029]", 0.575],
  ["MDFRSYPREFG [RBM10_Y44_YF]", 0.366],
  ["QAPPIYLDVLG [NTRK1_Y791_V790I]", 1.46],
  ["CLAQRYLIWEC [SCN5A_Y694_R689C]", 0.533],
  ["GSERDYTFDEL [EIF2S2_Y174_E177D_YF]", 0.474],
  ["PSRKDYETFQP [CTNND2_Y1154_YF]", 0.605],
  ["QPDFLYDHIQP [TRRAP_Y862]", 6.9],
  ["LFSDHYSPSGR [TMPRSS12_Y23_YF]", 0.39],
  ["SSQTVYQRVEG [TFR2_Y23]", 0.6],
  ["SDYSSYARTSI [TERT_Y949]", 0.845],
  ["ITVPAYFNDSQ [HSPA9_Y196]", 0.553]
]}

====

# Tested on: c-Src
# EXPERIMENT DESCRIPTION: phosphorylation enrichment, bacterial display (enrichment ratio); higher = better substrate or ligand; peptides without Tyr show the background
Class Y: phosphorylation enrichment at least 0.6. Class N: phosphorylation enrichment below 0.6.

{"columns": ["MACROMOLECULE SEQUENCE", "LABEL CLASS"],
 "data": [
  ["GGMTEYNLVVV [KRAS_Y4_K5N]", "N"],
  ["SVVVPYEPPEF [TP53_Y220_V225F]", "N"],
  ["PQAVTYAEVKH [LILRB4_Y360_K362E]", "Y"],
  ["EESREYDRLFE [PIK3R1_Y463_K459E_YF]", "Y"],
  ["AAALAYGLDKS [HSPA9_Y230]", "N"],
  ["RMGNLYDIDEN [GRIN2A_Y1246_D1251N]", "Y"],
  ["YTNELYMMMRD [FGFR1_Y730_C725Y]", "Y"],
  ["KRFRIYHLATS [BRCA2_Y3009_YF]", "N"],
  ["SLESAYPEGSQ [TTF1_Y357]", "N"],
  ["TSPKSCPSQKH [CAP2_Y316_Y316C]", "N"],
  ["DKNSSYFADWL [TUBB8_Y340]", "N"],
  ["QKLPSYILENN [VPS13B_Y2774]", "N"],
  ["NVGGKYSFLKV [GRM3_Y478_YF]", "N"],
  ["ITNVLYHVVGW [GBA_Y412_L410V]", "Y"],
  ["VNKIYHPDFIV [LIG3_Y768_Y768H]", "N"],
  ["RYVTRHIYNRE [HLA-DQB1_Y62_Y62H]", "Y"],
  ["HLLRIYFDITD [MMP27_Y307_W304L_YF]", "Y"],
  ["GVLDIYGFEIL [MYO1A_Y382]", "Y"],
  ["SSPQLYLVPFL [TAF4_Y652_P651L]", "Y"],
  ["KSEMSYIDGEK [SORBS1_Y485]", "N"],
  ["VIEYSYTSADG [DHCR7_Y382_C380Y]", "N"],
  ["ANSPVYVPTTR [GATA6_Y188_S184N]", "N"],
  ["LARDIYKNDFF [ROS1_Y2110_YF]", "Y"],
  ["NGQAVYAACQT [XDH_Y1092]", "Y"],
  ["PQEVMYAQLDH [KIR3DL2_Y398_T397M]", "Y"],
  ["VVEVTYDDVPI [FLNB_Y1308]", "Y"],
  ["VFDMLYQLANL [USP24_Y1087]", "Y"],
  ["LPQDGYRIVQH [PTPRT_Y1329_R1324L]", "N"],
  ["SVVVPYEPPDV [TP53_Y220_E224D]", "N"],
  ["ITNLLYHVVGG [GBA_Y412_W417G]", "Y"],
  ["SYCYRYRCAPR [SUMF1_Y344_A348P]", "N"],
  ["YKIYRYTLNDN [FN1_Y1975_L1974R]", "N"],
  ["WFPANYVKLLS [ITSN1_Y1132]", "N"],
  ["ILGLEYSLRVP [HELZ2_Y1304]", "Y"],
  ["MARDIYQASFF [LTK_Y672_R673Q_YF]", "Y"],
  ["DFKIIYIVPMR [SNRNP200_Y540_A542V]", "N"],
  ["QRCYVYYYSYL [PTEN_Y176_R173C]", "Y"],
  ["NHRNQYQALKP [CLSPN_Y887]", "N"],
  ["KDGNGYISAAE [CALM1_Y100]", "N"],
  ["AVEDQYFCVDC [FHL1_Y207_YF]", "Y"],
  ["VATRWYRSPEL [CDKL5_Y177]", "N"],
  ["RKQQLYIAMEE [CCDC39_Y593_T594I]", "Y"],
  ["CGQDPCIRELG [UROS_Y19_Y19C]", "N"],
  ["RPCVVYGGADI [DDX3X_Y301]", "Y"],
  ["MIHSAYALGGL [CPS1_Y590_R587H]", "N"],
  ["HLPAGYIIPLQ [GAA_Y822_R819P]", "N"],
  ["DKGTLYIVEQI [PLBD1_Y375]", "N"],
  ["DEQKKYYNAMK [SCN5A_Y1494_E1489D]", "N"],
  ["PTFEHYANSTQ [SLC12A3_Y70_YF]", "N"],
  ["KRLAVYIDEEA [EPM2A_Y304_P301L]", "N"],
  ["KDQGIYEDYVE [MYL6_Y86_T85I]", "Y"],
  ["QKFMAYLSQGW [HLCS_Y236_G241W]", "N"],
  ["RRAKGYPIDLY [ITGB2_Y125]", "Y"],
  ["AVLSLYASGST [ACTG2_Y144_R148S]", "N"],
  ["CDSSGYWTPEE [PAPPA2_Y908]", "N"]
]}
